# Tested on: Pseudomonas fluorescens HPPD polypeptide (wild-type and mutants)
# experiment.description: Coupled HPPD activity assay: turnover and residual turnover in crude HPPD polypeptide extracts with and without Cmpd. 1
# Type: biochemical
# setup.conditions: 100 μM Cmpd. 1, normalised to turnover without inhibitor
measure.name: Residual turnover [%] (%)
Numbers only, in %.

Ask | Look up Residual turnover [%] for this molecule: SEQ ID NO:28 (protein, mutant HPPD polypeptide) MADLYENPMGLMGFEFIEFASPTPGTLEPIFEIMGFTKVATHRSKNVHLYRQGEINLILNNEPNSIASYFAAEHGPSVCGMAFRVKDSQKAYNRALELGAQPIHIDTGPMELNLPAIKGIGGAPLYLIDRFGEGSSIYDIDFVYLEGVERNPVGAGLKVIDHLTHNVYRGRMVYWANFYEKLFNFREARYFDIKGEYTGLTSKAMSAPDGMIRIPLNEESSKGAGQIEEFLMQFNGEGIQHVAFLTDDLVKTWDALKKIGMRFLTAPGDEYYEMLEGRLPDHGEPVDQLQARGILLDGSSVEGDKRLLLQIFSETLMGPVFFEFIQRKGDDGFGPHSFKVLFESIERDQVRRGVLTAD
Reply | 50

Reference source: patent US11371056B2
